# tested.on: human glucagon receptor (hGLUC R) (Homo sapiens, UniProt P47871)
# Construct: expressed in transfected cells; host or cells: HEK-293
# Sequence (P47871 26-477): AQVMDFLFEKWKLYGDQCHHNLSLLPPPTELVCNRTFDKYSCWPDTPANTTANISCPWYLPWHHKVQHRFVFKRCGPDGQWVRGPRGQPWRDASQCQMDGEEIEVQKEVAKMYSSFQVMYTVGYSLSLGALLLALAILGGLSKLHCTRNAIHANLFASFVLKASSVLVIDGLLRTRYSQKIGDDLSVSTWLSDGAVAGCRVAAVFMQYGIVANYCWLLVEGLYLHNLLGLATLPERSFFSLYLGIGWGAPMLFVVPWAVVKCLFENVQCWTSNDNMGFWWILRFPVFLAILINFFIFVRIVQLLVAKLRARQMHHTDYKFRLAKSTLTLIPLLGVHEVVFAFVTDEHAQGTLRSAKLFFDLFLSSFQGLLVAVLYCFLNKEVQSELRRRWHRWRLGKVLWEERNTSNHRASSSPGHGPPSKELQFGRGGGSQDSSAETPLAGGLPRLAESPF
# protocol.details: cAMP response (HTRF) of HEK-293 cells stably expressing human glucagon receptor
# Assay type: cell-based
# measurement.context: Table 5, Tza vs. His in position 1; read-out: EC50 hGlucagon-R
recorded.endpoint: pEC50
One number for each entry, as −log10 of the molar value.

# get_value(readout='pEC50', item= H-HSQGTFTSDLSKQLESRRAQEFIEWLLATGPESGAPPPS-OH [SEQ ID NO 34, reference compound] )
11.85
